Target: T1, human HVEM extracellular domain fused with an Fc fragment at the C-terminus (human, UniProt Q92956 39-202)
T1 construct: extracellular domain; Bought; also called hHVEM; not shown: Fc fragment at the C-terminus
T1 sequence (looked up): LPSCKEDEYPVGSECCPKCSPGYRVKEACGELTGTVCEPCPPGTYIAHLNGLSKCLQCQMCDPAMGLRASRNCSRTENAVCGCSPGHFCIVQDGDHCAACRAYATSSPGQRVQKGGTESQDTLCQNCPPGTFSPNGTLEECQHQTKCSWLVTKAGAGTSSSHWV
Experiment: phage ELISA
Readout Label: binding result

Fill in the blank: the reported binding result of LIGHT-75 (ligand, Printed mutations: Q117N, S160G, T161P, L220S, L227T; Soluble protein carries an N-terminal His tag) DGPAGSWEQLIQERRSHEVNPAAHLTGANSSLTGSGGPLLWETNLGLAFLRGLSYHDGALVVTKAGYYYIYSKVQLGGVGCPLGLAGPITHGLYKRTPRYPEELELLVSQQSPCGRATSSSRVWWDSSFLGGVVHLEAGEKVVVRVSDERLVRTRDGTRSYFGAFMV is ____.
binds
